Target: Btk SH2 domain H364D (XLA mutation) (human, UniProt Q06187 271-383, H364D)
Sequence (Q06187 271-383 H364D): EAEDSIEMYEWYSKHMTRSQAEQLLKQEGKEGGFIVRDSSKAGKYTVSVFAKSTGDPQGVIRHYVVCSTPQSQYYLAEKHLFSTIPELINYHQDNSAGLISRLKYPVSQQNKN
Test: FP
Square brackets hold non-standard residues; d marks the D form. Ends that are not written are not given here. pY = N[C@@H](Cc1ccc(OP(=O)(O)O)cc1)C(=O)O
valueType: Kd (µM)
Your answer should be a plain number; it is taken to be in µM.

[ask] Given ADND[pY]IIPLPD (also: FITC label, end not given here) [FITC-labeled pY-peptide (ADNDpYIIPLPD)] , state its recorded Kd.
[reply] 6.9

meta.source: paper PMC7210950
